# protocol_text: Toxicity in Artemia salina (brine shrimp) […]
# Assay type: organism-based
# details: in vivo
Below, each entry is listed alongside its reported LC50.

{"molecule": "CC(=O)O[C@H]1C[C@@]2(C)[C@@H](CC[C@H]3[C@@]4(C)C=CC(=O)[C@@H](C)[C@@H]4[C@H](OC(C)=O)C(=O)[C@@]32C)/C1=C(\\CCC=C(C)C)C(=O)O", "inequality_sign": "=", "LC50, µg/mL": 73.7}
{"molecule": "CC/C=C/[C@H](O)[C@H](O)C1=C(C)C(=O)[C@]2(O1)C(=O)N[C@@](OC)(C(=O)c1ccccc1)[C@H]2O", "inequality_sign": ">", "LC50, µg/mL": 100}
{"molecule": "O=C1CNC(=O)[C@H](Cc2ccccc2)N1", "inequality_sign": ">", "LC50, µg/mL": 100}
{"molecule": "COc1ccc2c(c1)N[C@@]1(C2=O)[C@H](C=C(C)C)N2C(=O)[C@@H]3CCCN3C(=O)[C@]2(O)[C@H]1O", "inequality_sign": ">", "LC50, µg/mL": 100}
{"molecule": "CC/C=C\\[C@H](O)[C@H](O)C1=C(C)C(=O)[C@]2(O1)C(=O)N[C@@](OC)(C(=O)c1ccccc1)[C@@H]2O", "inequality_sign": ">", "LC50, µg/mL": 100}
{"molecule": "O=C1[C@@H]2C[C@@H](O)CN2C(=O)[C@@H]2CCCN12", "inequality_sign": ">", "LC50, µg/mL": 100}
{"molecule": "COc1ccc2c3c([nH]c2c1)[C@H](CC(C)(C)O)N1C(=O)[C@@H]2CCCN2C(=O)[C@@]1(O)[C@H]3O", "inequality_sign": "=", "LC50, µg/mL": 73.2}
{"molecule": "O=C1N[C@@H](Cc2c[nH]c3ccccc23)C(=O)N2CCC[C@@H]12 [BREVIANAMIDE F]", "inequality_sign": "=", "LC50, µg/mL": 83.7}
{"molecule": "C[C@H]1C(=O)N2c3ccccc3[C@@]3(O)C[C@@H]4C(=O)N[C@](C)(c5nc6ccccc6c(=O)n54)N1[C@@H]23", "inequality_sign": ">", "LC50, µg/mL": 100}
{"molecule": "C[C@@H]1N[C@H]2N(C1=O)c1ccccc1[C@@]2(O)C[C@@H]1C(=O)N[C@](C)(O)c2nc3ccccc3c(=O)n21 [3-HYDROXYFUMIQUINAZOLINE A]", "inequality_sign": "=", "LC50, µg/mL": 80.8}
{"molecule": "O=C1C[C@@H](O)[C@H](O)c2cccc(O)c21 (relative stereo)", "inequality_sign": ">", "LC50, µg/mL": 100}
{"molecule": "COc1ccc2c3c([nH]c2c1)[C@H](CC(C)(C)O)N1C(=O)[C@@H]2CCCN2C(=O)[C@@]1(O)[C@H]3OC", "inequality_sign": "=", "LC50, µg/mL": 60.7}
{"molecule": "C[C@@H]1CN(C)[C@@H]2Cc3c[nH]c4cccc(c34)[C@H]2[C@H]1O", "inequality_sign": ">", "LC50, µg/mL": 100}
{"molecule": "O=c1cc[nH]c(=O)[nH]1", "inequality_sign": ">", "LC50, µg/mL": 100}
{"molecule": "C[C@@H]1NC(=O)[C@@H](Cc2c[nH]c3ccccc23)n2c1nc1ccccc1c2=O", "inequality_sign": "=", "LC50, µg/mL": 55.3}
{"molecule": "O=C1N[C@@H](CO)C(=O)N2C[C@H](O)C[C@@H]12", "inequality_sign": ">", "LC50, µg/mL": 100}
{"molecule": "C[C@@H]1NC(=O)[C@H]2CCCN2C1=O", "inequality_sign": ">", "LC50, µg/mL": 100}
{"molecule": "COc1ccc2c(c1)NC(=O)[C@@]21C=C2C(=O)N3CCC[C@H]3C(=O)N2[C@H]1C=C(C)C", "inequality_sign": ">", "LC50, µg/mL": 100}
{"molecule": "COc1ccc2c(C[C@@H]3NC(=O)[C@@H]4CCCN4C3=O)c(CC=C(C)C)[nH]c2c1", "inequality_sign": "=", "LC50, µg/mL": 44.8}
{"molecule": "C[C@@H]1N[C@H]2N(C1=O)c1ccccc1[C@@]2(O)C[C@@H]1C(=O)N[C@@H](C)c2nc3ccccc3c(=O)n21", "inequality_sign": "=", "LC50, µg/mL": 39.7}
{"molecule": "O=C1C[C@@H](O)[C@@H](O)c2cccc(O)c21 (relative stereo)", "inequality_sign": ">", "LC50, µg/mL": 100}
{"molecule": "C[C@@H]1C(=O)N2c3ccccc3[C@@]3(O)C[C@H](n4cnc5ccccc5c4=O)C(=O)N1[C@H]23", "inequality_sign": "=", "LC50, µg/mL": 72.8}
{"molecule": "C[C@@H]1NC(=O)[C@@H]2CCCN2C1=O", "inequality_sign": ">", "LC50, µg/mL": 100}
{"molecule": "COc1ccc2c3c([nH]c2c1)[C@H](C=C(C)C)N1C(=O)[C@@H]2CCCN2C(=O)[C@@H]1C3", "inequality_sign": "=", "LC50, µg/mL": 40.5}
{"molecule": "C[C@@H]1NC(=O)CNC1=O", "inequality_sign": ">", "LC50, µg/mL": 100}
{"molecule": "O=C1NCC(=O)N2CCC[C@@H]12", "inequality_sign": ">", "LC50, µg/mL": 100}
{"molecule": "CC(=O)O[C@@H]1C[C@H](O)[C@@]23CO[C@@H](O)[C@]1(C)[C@@H]2C[C@@H](O)[C@]1(C)[C@@H]3C(=O)[C@H](OC(C)=O)[C@@]2(C)[C@H](c3ccoc3)C[C@H]3O[C@]321", "inequality_sign": "<", "LC50, µg/mL": 1}
{"molecule": "CC(C)C[C@@H]1NC(=O)[C@@H]2CC(O)CN2C1=O (stereo partly specified)", "inequality_sign": ">", "LC50, µg/mL": 100}
{"molecule": "O=C1CCC(O)c2cccc(O)c21 (stereo unspecified) [4,8-DIHYDROXY-1-TETRALONE]", "inequality_sign": "=", "LC50, µg/mL": 52.7}
{"molecule": "C[C@H]1NC(=O)[C@@H](Cc2c[nH]c3ccccc23)n2c1nc1ccccc1c2=O", "inequality_sign": "=", "LC50, µg/mL": 78.8}
{"molecule": "COc1ccc2c3c([nH]c2c1)[C@H](C=C(C)C)N1C(=O)[C@@H]2CCCN2C(=O)[C@@]1(O)[C@H]3OC", "inequality_sign": "=", "LC50, µg/mL": 37.9}
